Method Summary: UV absorption spectrum (λmax, ε) of the merocyanine UV filters
Format: physicochemical
Setup Conditions: in EtOH
// values below are reported UV λmax
Report as a plain number; the unit nm is understood.

Below, 3 compounds whose answers are already recorded.
{"Compound": "CCOC(=O)/C(C#N)=C1/C=C(NCCC[Si]2(C)O[Si](C)(CCCNC3=C/C(=C(\\C#N)C(=O)OCC)CC(C)(C)C3)O[Si](C)(CCCNC3=C/C(=C(\\C#N)C(=O)OCC)CC(C)(C)C3)O[Si](C)(CCCNC3=C/C(=C(\\C#N)C(=O)OCC)CC(C)(C)C3)O2)CC(C)(C)C1 (stereo not shown)", "UV λmax / nm": 388}
{"Compound": "CCOC(=O)/C(C#N)=C1\\C=C(NCCC[Si](C)(O[Si](C)(C)C)O[Si](C)(C)C)CC(C)(C)C1", "UV λmax / nm": 388}
{"Compound": "CCOC(=O)/C(C#N)=C\\C=C\\N(C)CCC[Si](C)(O[Si](C)(C)C)O[Si](C)(C)C", "UV λmax / nm": 380}

Turning now to a further record.
Prompt: For the compound CC1(C)CC(NCCC[Si](C)(O[Si](C)(C)C)O[Si](C)(C)C)=CC(=C(C#N)C#N)C1 , report UV λmax.
Response: 381
